assay: ATG_GATA_CIS: Attagene CIS-FACTORIAL HepG2 Assay for human GATA Binding Protein (AID 2282944); conditions: HepG2 GATA cis-element reporter, Attagene multiplex mRNA; actives raise or lower the signal
Active and inactive are the calls of the source. The calls were made as follows: active = hit-call score of the fitted dose curve at least 0.9, where 1 is the maximum; inactive = score below 0.9.
Allowed answers: active, inactive

Enquiry: What was the test verdict on `Cc1ccc(O)cc1C` ?
Return: inactive

Enquiry: What was the test verdict on `Cc1ccc2c(c1N)C(=O)c1ccccc1C2=O` ?
Return: inactive

Enquiry: What was the test verdict on `N#Cc1ccc(O)cc1` ?
Return: inactive

Enquiry: What was the test verdict on `OCC(F)(F)OC(F)(F)C(F)(F)OC(F)(F)C(F)(F)OC(F)(F)CO` ?
Return: inactive

Enquiry: What was the test verdict on `NC(=O)C(F)(F)C(F)(F)F` ?
Return: inactive

Enquiry: What was the test verdict on `CC1(C)CN=C(NN=C(/C=C/c2ccc(C(F)(F)F)cc2)/C=C/c2ccc(C(F)(F)F)cc2)NC1` ?
Return: inactive

Enquiry: What was the test verdict on `CC(=O)CCc1ccc2c(c1)OCO2` ?
Return: inactive

Enquiry: What was the test verdict on `c1ccc2c(c1)sc1ccccc12` ?
Return: inactive

Enquiry: What was the test verdict on `Nc1ccc([N+](=O)[O-])cc1Cl` ?
Return: inactive

Enquiry: What was the test verdict on `Nc1ccc(Cl)cc1` ?
Return: inactive

Enquiry: What was the test verdict on COC(=O)C(F)(F)C(F)(F)OC(F)(C(F)(F)F)C(F)(F)OC(F)=C(F)F (centres undefined) ?
Return: inactive

Enquiry: What was the test verdict on `Nc1ccc2ccccc2c1` ?
Return: inactive

Enquiry: What was the test verdict on `O=c1ssc(Cl)c1Cl` ?
Return: inactive

Enquiry: What was the test verdict on CCOP(=S)(NC(C)C)Oc1ccccc1C(=O)OC(C)C (centres undefined) ?
Return: inactive

Enquiry: What was the test verdict on `ClC(Cl)c1ccccc1` ?
Return: inactive

Enquiry: What was the test verdict on `O=S(=O)(F)C(F)(F)C(F)(F)C(F)(F)C(F)(F)C(F)(F)C(F)(F)C(F)(F)C(F)(F)F` ?
Return: inactive

Enquiry: What was the test verdict on `CC1=C(C(=O)Nc2ccccc2)S(=O)(=O)CCO1` ?
Return: inactive

Enquiry: What was the test verdict on `Clc1ccc(Oc2ccccc2)cc1` ?
Return: inactive

Enquiry: What was the test verdict on `CC(C)(C)c1ccccc1OP(=O)(Oc1ccccc1)Oc1ccccc1` ?
Return: inactive

Enquiry: What was the test verdict on `Cc1ccc(N)cc1N` ?
Return: inactive

Enquiry: What was the test verdict on `Cc1cc(C)c(C(=O)P(=O)(c2ccccc2)c2ccccc2)c(C)c1` ?
Return: active

Enquiry: What was the test verdict on CC(O)C#N (centres undefined) ?
Return: inactive

Enquiry: What was the test verdict on `O=C(O)C(F)(F)OC(F)(F)C(F)(F)OC(F)(F)F` ?
Return: inactive

Enquiry: What was the test verdict on `Nc1ccc(Sc2ccc(N)cc2)cc1` ?
Return: inactive

Enquiry: What was the test verdict on `O=S(=O)(c1ccc(O)cc1)c1ccc(O)cc1` ?
Return: inactive

Enquiry: What was the test verdict on `CCCCN(CC)C(=O)SCCC` ?
Return: inactive

Enquiry: What was the test verdict on `O=c1[nH]c2ccccc2c(=O)o1` ?
Return: inactive

Enquiry: What was the test verdict on CC(Cl)CN(C)C (centres undefined) ?
Return: inactive

Enquiry: What was the test verdict on CCCCOCC1CO1 (centres undefined) ?
Return: inactive
